target: Melanocortin receptor 4 (Homo sapiens, UniProt P32245)
Sequence (P32245 whole entry): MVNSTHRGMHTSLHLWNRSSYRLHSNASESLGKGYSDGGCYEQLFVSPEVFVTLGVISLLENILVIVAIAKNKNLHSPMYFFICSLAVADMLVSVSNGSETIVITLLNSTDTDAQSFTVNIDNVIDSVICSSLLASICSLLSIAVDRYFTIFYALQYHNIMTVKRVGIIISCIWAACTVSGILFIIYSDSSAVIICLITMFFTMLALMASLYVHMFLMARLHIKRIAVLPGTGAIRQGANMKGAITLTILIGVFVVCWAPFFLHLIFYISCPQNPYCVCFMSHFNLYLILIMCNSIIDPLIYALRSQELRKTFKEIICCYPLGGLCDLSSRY
property: log10 Ki (log10 of the value in nM)
Form field - Quantity: Ki; Unit: nM; Scale: log10

Use these answered entries as a reference point.
compound	system	log10 Ki
CN(C1CCc2cccc(N3CCN(C(=O)[C@@H](Cc4ccc(Cl)cc4)NC(=O)[C@H]4Cc5ccccc5CN4)CC3)c2C1)S(C)(=O)=O (some centres not stated)	Melanocortin receptor 4 (Homo sapiens, UniProt P32245)	2.72
CNC1CCc2cccc(N3CCN(C(=O)[C@@H](Cc4ccc(Cl)cc4)NC(=O)[C@H]4Cc5ccccc5CN4)CC3)c2C1 (some centres not stated)	Melanocortin receptor 4 (Homo sapiens, UniProt P32245)	2.18
CCN1CCc2c(cccc2N2CCN(C(=O)[C@@H](Cc3ccc(Cl)cc3)NC(=O)[C@H]3Cc4ccccc4CN3)CC2)C1	Melanocortin receptor 4 (Homo sapiens, UniProt P32245)	2.85
O=C(N[C@H](Cc1ccc(Cl)cc1)C(=O)N1CCN(c2cccc3c2NCCC3)CC1)[C@H]1Cc2ccccc2CN1	Melanocortin receptor 4 (Homo sapiens, UniProt P32245)	3.20
CCCN(CCC)C1CCc2cccc(N3CCN(C(=O)[C@@H](Cc4ccc(Cl)cc4)NC(=O)[C@H]4Cc5ccccc5CN4)CC3)c2C1 (some centres not stated)	Melanocortin receptor 4 (Homo sapiens, UniProt P32245)	2.26
CCN1CCc2cccc(N3CCN(C(=O)[C@@H](Cc4ccc(Cl)cc4)NC(=O)[C@H]4Cc5ccccc5CN4)CC3)c2C1	Melanocortin receptor 4 (Homo sapiens, UniProt P32245)	2.28

Read the next record carefully.
Measured log10 Ki (Melanocortin receptor 4 (Homo sapiens, UniProt P32245)), entry CN(C)C1CCc2cccc(N3CCN(C(=O)[C@@H](Cc4ccc(Cl)cc4)NC(=O)[C@H]4Cc5ccccc5CN4)CC3)c2C1 (some centres not stated) : 1.85
